- Tested on: CCRIS mutagenicity, Ames/micronucleus/aberration tests
- measurement-description: CCRIS mutagenicity studies
- condition-summary: Test System: AMES SALMONELLA TYPHIMURIUM; Strain/Indicator: TA98; Metabolic Activation: RAT, LIVER, S-9, AROCLOR 1254 (10%); Method: PREINCUBATION
Activity calls are given as the source filed them. How the calls were made is not given here.
Your reply should match one of these outcome classes. active, inactive

Take a look at these entries with their results.
>  <compound>
CC(C)(C)c1cc(O)ccc1O

>  <tested-target>
CCRIS mutagenicity, Ames/micronucleus/aberration tests

>  <category-label>
inactive

$$$$
>  <compound>
Cc1cc(-c2cc(C)c(N)c(C)c2)cc(C)c1N

>  <tested-target>
CCRIS mutagenicity, Ames/micronucleus/aberration tests

>  <category-label>
inactive

$$$$
>  <compound>
OC1C2(Cl)C3(Cl)C4(Cl)C(Cl)(Cl)C5(Cl)C3(Cl)C1(Cl)C5(Cl)C24Cl (stereo unspecified)

>  <tested-target>
CCRIS mutagenicity, Ames/micronucleus/aberration tests

>  <category-label>
inactive

$$$$

Task: Answer briefly: the call reported for `Nc1ccc([N+](=O)[O-])c(N)c1` in this assay.
Result: active

Task: Just curious, what result did CCCCC(CC)COCCCN (stereo unspecified) get here?
Result: inactive

Task: Could you kindly confirm the outcome this assay logged for `O=C1CCCO1` ?
Result: inactive

Task: In this assay, the call recorded for `Nc1ccc(N)c2c1C(=O)c1c(N)ccc(N)c1C2=O` was what?
Result: active

Task: Please share the test call associated with `Clc1cccc(C(Cl)(Cl)Cl)n1` .
Result: active

Task: Lab log entry: CN(C)CCC(c1ccccc1)c1ccccn1 (stereo unspecified) — outcome as called in the assay?
Result: inactive

Task: Just curious, what result did `CN(C)CCN(Cc1ccccc1)c1ccccc1` get here?
Result: inactive

Task: GET /call?item= `CCN(CC)CCO` returns the recorded outcome of this test.
Result: inactive

----------
- Test system: CCRIS mutagenicity, Ames/micronucleus/aberration tests
- measurement-description: CCRIS mutagenicity studies
- condition-summary: Test System: AMES SALMONELLA TYPHIMURIUM; Strain/Indicator: TA98; Metabolic Activation: HAMSTER, LIVER, S-9, AROCLOR 1254 (30%); Method: PREINCUBATION
Active and inactive are the calls of the source. The rule behind the calls is not given here.
In this exercise, the only acceptable responses are TRUE for active, FALSE for inactive

>  <molecule>
C=C(C)c1ccccc1

>  <tested-target>
CCRIS mutagenicity, Ames/micronucleus/aberration tests

>  <category-label>
FALSE

$$$$

Task: Assay result, entry `CCCCOc1ccc(C=Nc2ccc(CC)cc2)cc1` — outcome?
Result: FALSE

Task: State the result this test recorded for `Nc1ccccc1C(=O)OC/C=C/c1ccccc1` .
Result: FALSE

Task: Test call for this molecule, please: `CC(C)(C)c1cc(O)ccc1O`
Result: FALSE

Task: What did this assay record as the result for `Clc1cccc(C(Cl)(Cl)Cl)n1` ?
Result: TRUE

Task: Record request — test call for `CCCCCCCCCCCC[S][Sn]([CH2]CCC)([CH2]CCC)[S]CCCCCCCCCCCC`
Result: FALSE

Task: Just curious, what result did `COP(=O)(OC)OC` get here?
Result: FALSE

Task: Returns: the outcome recorded for `O=[N+]([O-])c1cccc2c([N+](=O)[O-])cccc12` in this assay.
Result: TRUE

Task: Test call for this molecule, please: `FC(F)(F)c1ccccc1Cl`
Result: FALSE

----------
- Tested on: CCRIS mutagenicity, Ames/micronucleus/aberration tests
- measurement-description: CCRIS mutagenicity studies
- condition-summary: Test System: AMES SALMONELLA TYPHIMURIUM; Strain/Indicator: TA100; Metabolic Activation: RAT, LIVER, S-9, AROCLOR 1254; Method: STANDARD PLATE
Calls of active or inactive are those of the source. The rule behind the calls is not given here.
The categories you may choose from are active, inactive

Task: Per the assay record, what outcome was assigned to `CCCCOc1cc(N=Nc2ccccc2)ccc1N=Nc1c(S(=O)(=O)O)cc2ccc(N)cc2c1O` ?
Result: inactive

Task: Identify the outcome logged in this assay for the compound shown: `NCCN1CCNCC1`
Result: inactive

Task: Please share the test call associated with `O=C(O)c1ccccc1` .
Result: inactive

Task: Which outcome was entered for the compound CSCCC(NC(=O)COc1cc(Cl)c(Cl)cc1Cl)C(=O)O (centres undefined) in this test?
Result: inactive

Task: Status in this test for `O=[N+]([O-])C1=Cc2cc3cc4ccccc4cc3c3cccc1c23` ?
Result: inactive

Task: // outcome(item) with item = `C=C(C)C(=O)OCCCC`
Result: inactive

Task: Which outcome was assigned to `C=C(C)C(=O)OCC(C)(C)COC(=O)C(=C)C` in this test?
Result: inactive

----------
- Tested on: CCRIS mutagenicity, Ames/micronucleus/aberration tests
- measurement-description: CCRIS mutagenicity studies
- condition-summary: Test System: AMES SALMONELLA TYPHIMURIUM; Strain/Indicator: TA98; Metabolic Activation: RAT, LIVER, S-9, PCB; Method: STANDARD PLATE
Calls of active or inactive are those of the source. How the calls were made is not given here.
Respond using exactly one of the listed classes: True = active, False = inactive

>  <compound>
Oc1ccc(O)cc1

>  <tested-target>
CCRIS mutagenicity, Ames/micronucleus/aberration tests

>  <category-label>
False

$$$$
>  <compound>
c1cc2cccc3c4cccc5cccc(c(c1)c23)c54

>  <tested-target>
CCRIS mutagenicity, Ames/micronucleus/aberration tests

>  <category-label>
True

$$$$
>  <compound>
CC(C)(C)NCC(O)c1cc(Cl)c(N)c(C(F)(F)F)c1 (centres undefined)

>  <tested-target>
CCRIS mutagenicity, Ames/micronucleus/aberration tests

>  <category-label>
False

$$$$
>  <compound>
CC(=O)Nc1ccc(Oc2ccc(NC(C)=O)cc2)cc1

>  <tested-target>
CCRIS mutagenicity, Ames/micronucleus/aberration tests

>  <category-label>
False

$$$$
>  <compound>
c1ccc2c(c1)c1cccc3ccc4cccc2c4c31

>  <tested-target>
CCRIS mutagenicity, Ames/micronucleus/aberration tests

>  <category-label>
True

$$$$
>  <compound>
O=C1C=Cc2ccc3c4c(ccc1c24)C(=O)C=C3

>  <tested-target>
CCRIS mutagenicity, Ames/micronucleus/aberration tests

>  <category-label>
False

$$$$

Task: For this compound, state the assay outcome: `c1ccc2cc3ccccc3cc2c1`
Result: False

Task: For `c1ccc2c(c1)-c1cccc3cccc-2c13` , what call appears in the results of this test?
Result: True

Task: Status in this test for `CC(=O)Nc1ccc(Cc2ccc(N)cc2)cc1` ?
Result: False

----------
- Test system: CCRIS mutagenicity, Ames/micronucleus/aberration tests
- measurement-description: CCRIS mutagenicity studies
- condition-summary: Test System: AMES SALMONELLA TYPHIMURIUM; Strain/Indicator: TA98; Metabolic Activation: RAT LIVER S-9, AROCLOR 1254; Method: STANDARD PLATE
Calls of active or inactive are those of the source. How the calls were made is not given here.
Hello, when you answer, please use one of the following outcomes: active, inactive

>  <compound-structure>
Cc1cc(N)c(C)c2c1[nH]c1ccccc12

>  <category-label>
active

$$$$
>  <compound-structure>
Cn1c2ccccc2c2cc(N)ccc21

>  <category-label>
active

$$$$
>  <compound-structure>
COC1=CC(=O)c2c(nc(C)c3c2[nH]c2ccccc23)C1=O

>  <category-label>
active

$$$$
>  <compound-structure>
Cc1ccc(N=Nc2c(O)c(C(=O)O)cc3ccccc23)c(S(=O)(=O)O)c1

>  <category-label>
inactive

$$$$
>  <compound-structure>
Cl[Si](Cl)(Cl)Cl

>  <category-label>
inactive

$$$$

Task: // return assay outcome for `O=S(=O)(O)c1ccc(N=Nc2c(O)ccc3ccccc23)cc1`
Result: inactive

Task: State the result this test recorded for `S=C=NCCc1ccccc1` .
Result: active

----------
- Test system: CCRIS mutagenicity, Ames/micronucleus/aberration tests
- measurement-description: CCRIS mutagenicity studies
- condition-summary: Test System: AMES SALMONELLA TYPHIMURIUM; Strain/Indicator: TA100; Metabolic Activation: RAT, LIVER, S-9, AROCLOR; Method: PREINCUBATION
- Excerpt: The CCRIS database contains chemical records with carcinogenicity, mutagenicity, tumor promotion, and tumor inhibition test results. It was developed by the National Cancer Institute (NCI). Data are derived from studies cited in primary journals, current awareness tools, NCI reports, and other sources. Test results have been reviewed by experts in carcinogenesis and mutagenesis. CCRIS provides historical information from the years 1985 - 2011. It is no longer updated. […]
Calls of active or inactive are those of the source. No rule for the calls is given here.

>  <compound>
CCC(C(C)O)[N+](=O)[O-] (centres undefined)

>  <mutagenic call>
inactive; negative

$$$$
>  <compound>
CCCCC[N+](=O)[O-]

>  <mutagenic call>
inactive; negative

$$$$
>  <compound>
CCC[N+](=O)[O-]

>  <mutagenic call>
inactive; negative

$$$$
